Data origin, for the record: PubChem BioAssay (NCI)

Test system: HCC-2998 colon
Experimental Details: NCI tumour cell line growth inhibition, 48 h
Value Kind: GI50

Tell me reported GI50 for CC(C)CC(=O)O[C@H]1C(=O)O[C@@H]2C[C@H]3[C@H](C)C(=O)C(O[C@@H]4O[C@H](CO)[C@@H](O)[C@H](O)[C@H]4O)=C[C@]3(C)[C@H]3[C@@H](O)[C@H](O)[C@]4(C(=O)O)OC[C@]32[C@@H]14 , tested with HCC-2998 colon.
20.6 µM

###

Test system: MDA-MB-435
Experimental Details: NCI tumour cell line growth inhibition, 48 h
TGI values, listed per item
Write the number in µM without appending the unit.

[[record]]
compound = "O=C1C(CN2CCCC2)CCC1CN1CCCC1 (stereo not given)"
test_system = "MDA-MB-435"
value_kind = "TGI"
reported_value = 32.9


// next item, TGI requested
I'd like to know its TGI. The compound in question is CN(C)CCCn1c2c(c3ccc(N4CCNCC4)cc3c1=O)C(=O)c1ccccc1-2
2.67

###

As shown below, each of these compounds has a reported TGI value.
System: CCRF-CEM leukemia
Experimental Details: NCI tumour cell line growth inhibition, 48 h

[[record]]
compound = "CN1CC[C@H](N(C)C(=O)N2CC(c3cc(F)ccc3F)=C[C@@]2(CO)c2ccccc2)[C@H](F)C1"
value_kind = "TGI"
reported_value = "> 100 µM"

[[record]]
compound = "O=c1[nH]c(-c2ccncc2)nc2sc3c(c12)CCCCCC3"
value_kind = "TGI"
reported_value = "> 100 µM"

[[record]]
compound = "Nc1cc2c(C3OC(CO)C(O)C3O)[nH]nc2c(=S)[nH]1 (stereo not given)"
value_kind = "TGI"
reported_value = "> 100 µM"

[[record]]
compound = "COc1ccc(N(c2ccc(C#N)cc2)c2ccc(C#N)cc2)cc1"
value_kind = "TGI"
reported_value = "> 100 µM"


Now for a further compound.
Given the entry O=[N+]([O-])C1=Cc2c(O)ccc(O)c2C2c3ccccc3NC12 (stereo not given) , report its measured TGI.
> 22.7 µM

###

This listing pairs molecules with measured TGI.
Tested on: HL-60(TB) leukemia
Experimental Details: NCI tumour cell line growth inhibition, 48 h
# output: bare number, implied unit µM

Dear colleague, I am looking for the recorded TGI of the following molecule: CCOC(=O)n1c(=O)nc2c3c(ncn21)Oc1c(c(-c2ccccc2)nn1-c1ccccc1)C3c1ccc(Cl)cc1 (stereo not drawn)
2.78

What TGI value was documented for this molecule, C=CC(C)(C)[C@@]12CC3C(=O)N[C@@H](Cc4ccccc4)C(=O)N3[C@@H]1N(C(C)=O)c1ccccc12 (stereo partly drawn) ?
62.1

Would you mind telling me what TGI value was observed for COC(=O)c1c(O)ccc2c1c1c(n2CCc2ccccc2)C(=O)c2ccccc2C1 ?
65.3

Recorded TGI for C=C(C)[C@@H]1CC[C@]2(C(=O)OC)CC[C@]3(C)[C@H](CC[C@@H]4[C@@]5(C)CC/C(=N\OCCC(=NCCC#N)NOCCC#N)C(C)(C)[C@@H]5CC[C@]43C)[C@@H]12 , please?
24.9

# input molecule: CCCCCCCCCCCCCCCCCCCCCCC(=O)N[C@H]1CCc2cc(OC)c(OC)c(OC)c2-c2ccc(SC)c(=O)cc21 ; wanted: its TGI
48.9

###

Tested on: HCT-116 colon
Experimental Details: NCI tumour cell line growth inhibition, 48 h; in the data active = GI50 below about 0.43 µM; inactive = the rest
Outcome (select one): true (1) = active, false (0) = inactive

[[record]]
compound = "NC1=Nc2cc(OCCCCN3Cc4ccccc4C3)c(OCC3CC3)cc2C12CCCC2"
class_name = "false (0)"

[[record]]
compound = "N/C(=N\\O)c1cn(C2OC(CO)C(O)C2O)c2ncnc(N)c12 (centres undefined)"
class_name = "true (1)"

[[record]]
compound = "CC/C(=C\\c1ccc(N(C)C)cc1)c1ccncc1"
class_name = "false (0)"

[[record]]
compound = "O[C@@H]1CCCCN1Cc1cc2cc3c(cc2c2cc(OCc4ccccc4)ccc12)OCO3"
class_name = "false (0)"

[[record]]
compound = "CCCN1CCCC(c2ccc(Nc3nc(Nc4cc(F)ccc4C(N)=O)c4cc[nH]c4n3)c(OC)c2)C1 (centres undefined)"
class_name = "true (1)"


Tell me the assay call for CC1(C)N=C(N)N=C(N)N1c1cccc(CC(=O)Nc2ccccc2)c1 please.
false (0)

Hi, do you know how Nc1nc(-c2ccccn2)c(-c2ccc3ncccc3n2)s1 came out in this test?
false (0)

What did this assay record as the result for COC(=O)[C@@H](C)C[C@H](Cc1ccccc1)NC(=O)c1nc([C@@H](C[C@H](C(C)C)N(C)C(=O)[C@@H](NC(=O)[C@H]2CC(=O)CCN2C)C(C)C)OC(C)=O)sc1C(C)C ?
true (1)

###

Test system: K-562 leukemia
Experimental Details: NCI tumour cell line growth inhibition, 48 h
The reader will find reported TGI values listed item by item below.

[[record]]
input_smiles = "CCn1c(O)c(C(=O)Nc2cccs2)c(=O)n(CC)c1=S"
reported_value = "53.6 µM"

[[record]]
input_smiles = "O=c1[nH]c(-c2ccncc2)nc2sc3c(c12)CCCCCC3"
reported_value = "> 100 µM"


// next entry
Query (molecule): COc1ccccc1Nc1nc(N)nc(N)c1N ; field requested: TGI
> 100 µM

###

Tested on: T-47D breast
Experimental Details: NCI tumour cell line growth inhibition, 48 h
Listing of entries alongside the reported TGI.
Please respond with the number in µM and leave the unit unwritten.

[[record]]
input_smiles = "O=C(/C=C/c1c[nH]c2ccccc12)c1ccccc1O"
value_kind = "TGI"
reported_value = 7.29


Form field: TGI recorded for C=C1C(=O)O[C@H]2[C@@H]3O[C@@](C)(CC/C=C(\C)CCC[C@@H]2C)[C@H](O)C[C@@H]13 with T-47D breast (enter value)
16.8

###

Tested on: HOP-18 NSCLC
Experimental Details: NCI tumour cell line growth inhibition, 48 h
Value Kind: TGI

// known answers, use as guide
[[record]]
compound = "O=P(c1ccccc1)(c1ccccc1)C1CC=C2CCCCCC2C1 (stereo unspecified)"
reported_value = "44.2 µM"

[[record]]
compound = "COC1=C(OC)C(=O)c2cc(C)c(=O)c(C)cc2C1=O"
reported_value = "29.9 µM"

[[record]]
compound = "O=c1ccn([C@@H]2C[C@H](CO)CS(=O)C2)c(=O)[nH]1 (stereo partly specified)"
reported_value = "> 100 µM"

[[record]]
compound = "COc1cc(CC2c3cc(OC)c(OC)cc3CCN2C)c(C(=O)O)cc1OC (stereo unspecified)"
reported_value = "> 100 µM"

[[record]]
compound = "O=C(O)OC12CCCCCC1C(=O)C1CCCCC12 (stereo unspecified)"
reported_value = "> 100 µM"

[[record]]
compound = "COc1ccc(Cc2c3cc(OC)c(OC)cc3cc[n+]2C)cc1"
reported_value = "> 45.8 µM"

[[record]]
compound = "O=C(CC1(O)C(=O)Nc2ccc(Br)cc21)c1cccc([N+](=O)[O-])c1 (stereo unspecified)"
reported_value = "> 100 µM"

[[record]]
compound = "O=C1N(c2ccccc2)C2(O)C(=O)c3ccccc3C2(O)N1c1ccccc1 (stereo unspecified)"
reported_value = "> 100 µM"


Could you share which TGI value was measured for O=C1C(=C2C(=O)c3ccccc3[N+]2=O)N([O-])c2ccccc21 ?
71.5 µM

What TGI value was documented for this compound, CCCCP1(=O)C=CC(Cl)=C(C)C1 (stereo unspecified) ?
> 100 µM

Which TGI value belongs to N#CC1(C2CC(=O)N(c3ccccc3)C2=O)CCCCC1=O (stereo unspecified) ?
> 100 µM

###

System: LOX IMVI melanoma
Experimental Details: NCI tumour cell line growth inhibition, 48 h
Value Kind: TGI

In the examples that follow, each entry is paired with its recorded TGI.
[[record]]
molecule = "CC/C(=C\\c1ccc(N(C)C)cc1)c1ccncc1"
reported_value = "> 100 µM"

[[record]]
molecule = "O=C(NC(=Nc1ccccc1)SCCSC(=Nc1ccccc1)NC(=O)c1ccccc1)c1ccccc1"
reported_value = "> 100 µM"

[[record]]
molecule = "Cc1cc(Br)ccc1N=NC1C(=O)ON=C1c1ccccc1 (stereo unspecified)"
reported_value = "> 100 µM"


Entry OC1(c2ccccc2)c2ccccc2N(c2ccccc2)c2ccc(Cl)cc21 (stereo unspecified) : reported TGI = ?
0.348 µM

May I ask what TGI has been recorded for O=[N+]([O-])c1ccc(-c2ccc([C@H]3CC(c4cc(F)c(Cl)cc4Cl)=NN3)o2)cc1 ?
> 100 µM

Returns the measured TGI for the input molecule. Input: Nc1ncnc2c1ncn2C1SC(CO)C(O)C1O (stereo unspecified)
48.4 µM

###

System: HCT-15 colon
Experimental Details: NCI tumour cell line growth inhibition, 48 h
Value Kind: TGI

Take a look at these entries with their results.
[[record]]
molecule = "C[C@H](O)CCC(=O)c1ccoc1"
reported_value = "> 100 µM"

[[record]]
molecule = "N#CN1CCC2CC(=O)CCC2C1 (stereo unspecified)"
reported_value = "> 100 µM"

[[record]]
molecule = "CC(=O)OC1=C(c2ccccc2)S(=O)(=O)c2ccccc21"
reported_value = "> 100 µM"

[[record]]
molecule = "CCCCCCCCCCCCCCCCCCCCCCC(=O)N[C@H]1CCc2cc(OC)c(OC)c(OC)c2-c2ccc(SC)c(=O)cc21"
reported_value = "71 µM"

[[record]]
molecule = "O=c1cc(O)c1=O"
reported_value = "> 100 µM"

[[record]]
molecule = "Cc1cc(C)c(CNC(=O)c2cc(Cl)c3c(c2C)O[C@@](C)(C2CCC(N(C)C)CC2)O3)c(=O)[nH]1 (stereo partly specified)"
reported_value = "> 100 µM"


Report TGI for O=C1OCC2=C1C(c1ccc(Cl)cc1)c1cc3c(cc1O2)OCO3 (stereo unspecified) please.
> 100 µM

Value lookup for TGI; key = CCn1c(O)c(C(=O)Nc2cccs2)c(=O)n(CC)c1=S
41.7 µM

# lookup: TGI of N#Cc1nc(CCC(C(=O)O)N2C(=O)c3ccccc3C2=O)oc1N (stereo unspecified)
> 100 µM

Value lookup for TGI; key = CC1(C)OC2OC(/C=C/[N+](=O)[O-])C3OC(C)(C)OC3C2O1 (stereo unspecified)
5.43 µM

Fill blank: measured TGI of the molecule CCOc1ccc(-c2nc3ccc(-c4nc5ccc(N6CCN(C)CC6)cc5[nH]4)cc3[nH]2)cc1OCC is ____.
> 100 µM
